Reference source for all entries: patent US4590178A

Exercise: for every item that follows, state its recorded Systolic Blood Pressure, Pretreatment.
# System: spontaneously hypertensive rats
# TEST_DESCRIPTION: Antihypertensive activity: systolic blood pressure measured indirectly on conscious SHR after peroral dosing
# Format: in vivo, rat
# TEST_SETTINGS: SHR (male, 13 months, 2 per sample), before 35 mg/kg peroral single dose
One number for each entry, in mm Hg.

>  <MOLECULE>
C[C@H](NP(=O)(OCc1ccccc1)OCc1ccccc1)C(=O)N1CCC[C@H]1C(=O)N1C[C@H](O)C[C@H]1C(=O)O.N=C(N)NCCC[C@H](N)C(=O)O (relative stereo)

>  <MEASUREMENT>
181

$$$$
>  <MOLECULE>
C[C@H](NP(=O)(CCc1ccccc1)OCc1ccccc1)C(=O)N(CC(=O)N1CCC[C@H]1C(=O)O)C1Cc2ccccc2C1.NC(N)=NCCC[C@H](N)C(=O)O (some centres unmarked)

>  <MEASUREMENT>
184

$$$$
>  <MOLECULE>
C[C@H](NP(=O)(OCc1ccccc1)OCc1ccccc1)C(=O)N1CCC[C@H]1C(=O)N[C@@H](Cc1ccccc1)C(=O)O.N=C(N)NCCC[C@H](N)C(=O)O

>  <MEASUREMENT>
188

$$$$
>  <MOLECULE>
O=C(O)[C@@H]1CCCN1C(=O)[C@@H]1CCCN1C(=O)[C@H](Cc1ccccc1)NP(=O)(Cc1ccccc1)Cc1ccccc1

>  <MEASUREMENT>
184

$$$$

IN: Suppose we examine the molecule C[C@H](NP(=O)(OCc1ccccc1)OCc1ccccc1)C(=O)N1C[C@H](O)C[C@H]1C(=O)N1CCC[C@H]1C(=O)O (relative stereo) ; what Systolic Blood Pressure, Pretreatment value has been reported?
OUT: 182

###

Exercise: for every item that follows, state its recorded Systolic Blood Pressure, 4 hrs after administration.
# System: spontaneously hypertensive rats
# TEST_DESCRIPTION: Antihypertensive activity: systolic blood pressure measured indirectly on conscious SHR after peroral dosing
# Type: in vivo, rat
# TEST_SETTINGS: SHR, 4 hours after 35 mg/kg peroral single dose
Answers are plain numbers, in mm Hg.

These solved cases illustrate the format of a correct answer.
>  <MOLECULE>
CSCC[C@H](NP(=O)(CCc1ccccc1)OCc1ccccc1)C(=O)N1CCC[C@H]1C(=O)N1CCC[C@H]1C(=O)[O-].CSCC[C@H](NP(=O)(CCc1ccccc1)OCc1ccccc1)C(=O)N1CCC[C@H]1C(=O)N1CCC[C@H]1C(=O)[O-].[Ca+2] (stereo partly drawn)

>  <MEASUREMENT>
180

$$$$
>  <MOLECULE>
C[C@H](NP(=O)(OCc1ccccc1)OCc1ccccc1)C(=O)N1CCC[C@H]1C(=O)N1C[C@H](O)C[C@H]1C(=O)O.N=C(N)NCCC[C@H](N)C(=O)O (relative stereo)

>  <MEASUREMENT>
162

$$$$
>  <MOLECULE>
CCOP(=O)(CCc1ccccc1)N[C@@H](CCSC)C(=O)N1CCC[C@H]1C(=O)N1CCC[C@H]1C(=O)O.NC(N)=NCCC[C@H](N)C(=O)O (stereo partly drawn)

>  <MEASUREMENT>
166

$$$$

// each listed molecule needs a value for Systolic Blood Pressure, 4 hrs after administration
1. C[C@H](NP(=O)(CCc1ccccc1)OCc1ccccc1)C(=O)N1CCC[C@H]1C(=O)N1CCC[C@H]1C(=O)OCc1ccccc1 (stereo partly drawn)
2. C[C@H](NP(=O)(OCc1ccccc1)OCc1ccccc1)C(=O)N1C[C@H](O)C[C@H]1C(=O)N1CCC[C@H]1C(=O)O (relative stereo)
3. O=C(O)CC[C@H](NP(=O)(OCc1ccccc1)OCc1ccccc1)C(=O)N1CCC[C@H]1C(=O)N1CCC[C@H]1C(=O)O

OUT:
1. 160
2. 163
3. 196
